These measurements were taken from ChEMBL document CHEMBL1201862.

# Test system: CCRF-CEM
# procedure.text: NCI tumour cell line growth inhibition, 48 h
Activity calls are given as the source filed them. Cut-off read from the data, not from the text of the source: active = GI50 up to about 1.1 µM and inactive = higher.
Write down one outcome, taken from yes (active), no (inactive)

Example cases with answers are listed next.
1. CN(C)CCNC(=O)c1ccc(Cl)c2ccc(-c3ccccc3)nc12 :: no
2. C=C[C@@H](C)[C@H](NS(=O)(=O)c1ccc(C)cc1)C(=O)OCC :: no
3. COc1ccc(C(=O)C(c2ccc(OC)cc2)C2OC(=O)C(Cl)=C2Cl)cc1 (configuration not stated) :: no

Query: State the result this test recorded for "COC(=O)/C=C\n1nc(Br)c(=O)[nH]c1=O" .
Result: no

Query: Can you handle "C=CCOC1=C2CC[C@H](O)[C@@]2(C)CCC1=O" next?
Result: no

Query: Can you handle Cn1c2c(c3ccccc31)CC(=O)N1CCCCC1C21OCCO1 (configuration not stated) next?
Result: no

Query: Can you handle "NCCCCNC1(c2cc3ccccc3s2)CCCCC1" next?
Result: no

Query: Can you handle COc1cc(C2c3cc4c(cc3[C@@H](Nc3cccc([N+](=O)[O-])c3)C3COC(=O)[C@H]23)OCO4)cc(OC)c1O (some centres not stated) next?
Result: yes

Query: Can you handle O=C1OC(CN2CCN(c3ccccc3)CC2)CN1C(=S)Nc1ccccc1 (configuration not stated) next?
Result: no

Query: Can you handle COCC1N=C(c2cc(OC)c(OC)c(OC)c2-c2cc3c(cc2[C@@H](C)O)OCO3)O[C@H]1c1ccccc1 (some centres not stated) next?
Result: no

Query: Can you handle "Cc1nc(-n2nc(-c3ccccc3)cc2-c2ccccc2)sc1C(=O)/C=C/c1ccc(Cl)cc1" next?
Result: no

###

# System: COLO 205
# procedure.text: NCI tumour cell line growth inhibition, 48 h
Activity calls are given as the source filed them. Rule as the data show it: active = GI50 up to about 1.1 µM and inactive = higher.
measurement.name: GI50

# count of solved cases: 5
1. O=C(O)C1CCCCN1CCc1c[nH]c2ccccc12 (stereo unspecified) :: > 100 µM (inactive)
2. CN(CCc1ccccn1)c1ccc2c(c1)C(=O)c1ccccc1-2 :: 35.5 µM (inactive)
3. COC(=O)N1CC(=O)C(C(=O)NC23CC4CC(CC(C4)C2)C3)C1 (stereo unspecified) :: 62.1 µM (inactive)
4. C=CC/C=C/C/C=C/CCCCCCCc1cccc(O)c1C(=O)O :: > 100 µM (inactive)
5. Clc1cc2nc(C3CCCO3)[nH]c2cc1Cl (stereo unspecified) :: 37.1 µM (inactive)

Next compound, GI50 to be filled in.
Query: Give the measured GI50 of "CSc1ncnc2c1cnn2Cc1cn(CCCCO)nn1" .
Result: > 100 µM (inactive)

###

# Test system: T47D
# procedure.text: NCI tumour cell line growth inhibition, 48 h
Active and inactive are the calls of the source. Rule as the data show it: active = GI50 up to about 1.1 µM and inactive = higher.
Write down one outcome, taken from 1 for active, 0 for inactive

1. CC(=O)N(C(=O)CC(=O)N1N=C(C)C(/N=N/c2cccc([N+](=O)[O-])c2)C1=O)c1ccc(Cl)cc1 (stereo not given) :: 0
2. CC(C)[C@@H]1NC(=O)[C@H]2N=C(O[C@@H]2C)[C@@H]2CCCN2C(=O)[C@H](Cc2ccccc2)NC(=O)[C@@H]2CSC(=N2)[C@@H](Cc2ccccc2)NC(=O)[C@@H]2CSC1=N2 :: 0
3. O=C(c1ccccc1)c1ccc2[nH]c(-c3c(Cl)c(Cl)c(Cl)c(Cl)c3C(=O)N/N=C/c3ccc(Cl)cc3)nc2c1 :: 0
4. O=C1CC(Br)c2c(Cl)sc(Cl)c21 (stereo not given) :: 0
5. CC(C)C(=O)/C=C/S/C=C/C(=O)C(C)C :: 0

Query: State the result this test recorded for "O=C(O)/C(Cl)=C(/Cl)C(=O)Nc1cccc(Cl)c1" .
Result: 0

Query: Can you handle CC(C)(C)[Si](C)(C)OCC1OC(n2cnc3c(=O)[nH]c(N)nc32)C(O[Si](C)(C)C(C)(C)C)C1O[Si](C)(C)C(C)(C)C (stereo not given) next?
Result: 0

Query: Can you handle CCOC(=O)N1CCC2C(=C(C)C(C)C3=C2C(=O)c2ccccc2C3=O)C1 (stereo not given) next?
Result: 0

Query: Can you handle "CSc1nc2c(=O)n(-c3ccccc3)c(=S)n(-c3ccccc3)c2s1" next?
Result: 0

Query: Can you handle CCOC(=O)CCC(NC(=O)c1ccc(Oc2nc3ccc(C(F)(F)F)cc3nc2-c2ccccc2)cc1)C(=O)OCC (stereo not given) next?
Result: 0
